The origin of these recorded values is paper PMC3288198.

molecular target: UniProt Q9BY41; test: HDAC deacetylase homogenous fluorescence assay, HDAC8; type: biochemical; conditions: read-out: HDAC8 IC50; 12 point titration, trifluoroacetylated substrate
Sequence (Q9BY41 whole entry): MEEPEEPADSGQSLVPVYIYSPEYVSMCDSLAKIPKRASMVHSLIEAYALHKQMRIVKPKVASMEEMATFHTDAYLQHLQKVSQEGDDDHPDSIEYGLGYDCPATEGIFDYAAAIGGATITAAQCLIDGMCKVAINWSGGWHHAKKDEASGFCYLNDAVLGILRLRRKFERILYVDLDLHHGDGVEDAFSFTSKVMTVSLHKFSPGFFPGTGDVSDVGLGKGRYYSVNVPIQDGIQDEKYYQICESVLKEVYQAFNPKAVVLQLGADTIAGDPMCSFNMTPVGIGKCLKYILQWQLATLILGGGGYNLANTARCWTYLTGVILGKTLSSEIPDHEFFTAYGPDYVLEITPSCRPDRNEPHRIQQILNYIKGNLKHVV
parameter: IC50 (nM)
Could you give me the number in nM? Just the number is fine.

{"columns": ["compound", "IC50 (nM)"],
 "data": [
  ["NC(N)=Nc1ccc2[nH]c3c(c2c1)C[C@@]1(O)[C@H]2Cc4ccc(O)c5c4[C@@]1(CCN2CC1CC1)[C@H]3O5 [GNTI]", 2000],
  ["OC[C@H]1O[C@H]([S-])[C@H](O)[C@@H](O)[C@@H]1O.[Au+] [Aurothioglucose, 1-thio-D-glucopyronaose gold salt]", 1400]
]}

INPUT: Specify reported IC50 for the compound shown: COc1ccc2c(c1)CC[C@@H]1[C@@H]2CC[C@]2(C)[C@@H](NCCCCCCN3C(=O)C=CC3=O)CC[C@@H]12 [U-73122]
OUTPUT: 10900
